- Test system: Saccharomyces cerevisiae
- assay_summary: protein stability index of tFT-peptide fusion (C-terminal peptide) (PSI (0-1 scale)); higher = more stable (slower turnover)
- test_context: genetic background: wild type; temperature: 30 C
value_kind: protein stability index
Respond with the number and no other words.

- biopolymer_sequence: "KNKKNKKKGKKK [CHS5 C-terminal 12 aa]"
  quantitative_result: 0.696
- biopolymer_sequence: "AKELISAIFFGE [TAF6 C-terminal 12 aa]"
  quantitative_result: 0.661
- biopolymer_sequence: "EDDITVVVVRVD [PTC7 C-terminal 12 aa]"
  quantitative_result: 0.673
- biopolymer_sequence: "TPRLYTDRSRDF [RPB2 C-terminal 12 aa]"
  quantitative_result: 0.713
- biopolymer_sequence: "AIHLEAVSLVDC [CIS3 C-terminal 12 aa]"
  quantitative_result: 0.611
- biopolymer_sequence: "KLKRTITLPQLD [CIK1 C-terminal 12 aa]"
  quantitative_result: 0.761
- biopolymer_sequence: "NESLNDYFTGIK [YBP1 C-terminal 12 aa]"
  quantitative_result: 0.772
- biopolymer_sequence: "EEPQLDLLDDVL [MTW1 C-terminal 12 aa]"
  quantitative_result: 0.709
- biopolymer_sequence: "YDRDAKNDRSTT [YHL017W C-terminal 12 aa]"
  quantitative_result: 0.665
- biopolymer_sequence: "TDLPKWAQLDNS [PUS6 C-terminal 12 aa]"
  quantitative_result: 0.702

## Task Please list protein stability index recorded for the sequence RKFFKRMTNFWC [TAT1 C-terminal 12 aa]
## Result 0.436

## Task Identify measured protein stability index corresponding to GAAIAAGVAFLF [YCL048W-A C-terminal 12 aa]
## Result 0.538

## Task Look up and state reported protein stability index for AVNALNEAMDKL [BNA5 C-terminal 12 aa]
## Result 0.696

###

- Test system: Saccharomyces cerevisiae
- assay_summary: protein stability index of tFT-peptide fusion (C-terminal peptide) (PSI (0-1 scale)); higher = more stable (slower turnover)
- test_context: genetic background: wild type; temperature: 30 C
Rule: fulfilled for protein stability index not less than 0.7, not fulfilled for anything less.

- biopolymer_sequence: "ELEIKGRRQIKT"
  target_desc: "Saccharomyces cerevisiae"
  label_class: "not fulfilled"

## Task Check if protein stability index >= 0.7 (inclusive). Item: SFVCFFLNLFVY
## Result not fulfilled

## Task Form field: protein stability index at least 0.7? Entry: NVCSSFLAELVN
## Result not fulfilled

## Task Determine whether measured protein stability index meets or exceeds 0.7 for SVFGLLSVCFFY
## Result not fulfilled

## Task Form field: protein stability index at least 0.7? Entry: VPVALWEAPAVH
## Result not fulfilled

## Task Could you tell me if the measured protein stability index of VGVVVGLVRLLG reaches 0.7 or more?
## Result not fulfilled

## Task Confirm if protein stability index reported for the sequence SVEAGHVAERES is 0.7 or above.
## Result fulfilled

###

Items are presented alongside their recorded protein stability index.
- Test system: Saccharomyces cerevisiae
- assay_summary: protein stability index of tFT-peptide fusion (C-terminal peptide) (PSI (0-1 scale)); higher = more stable (slower turnover)
- test_context: genetic background: wild type; temperature: 30 C
# print the numeric value only

Take a look at these entries with their results.
- biopolymer_sequence: "PPPAPRPPASPP"
  protein stability index: 0.698
- biopolymer_sequence: "WGEGRGRVWEIS"
  protein stability index: 0.665
- biopolymer_sequence: "VCMHIVLLAASP"
  protein stability index: 0.193

## Task Give protein stability index for RSWCAGMAGRRR
## Result 0.663

## Task Answer with reported protein stability index of SVYCVLSRGNRL
## Result 0.687
